test: Apparent permeability across apical to basolateral side in MDCK cells at 10 uM after 60 mins; format: ADME, cell-based, Canis lupus familiaris; conditions: dog
Returns: string. Value is Satisfied if measured Papp A→B at 1 h, 10 µM is below 10 ×10⁻⁶ cm/s, and Not satisfied if it is greater than or equal to it.

INSERT INTO assay_data (molecule, cat) VALUES
  ('CCn1c(=O)c(-c2ccc(-n3cccc(C)c3=O)cc2Cl)cc2cnc(NC)nc21', 'Not satisfied'),
  ('CNc1ncc2cc(-c3ccc(-n4cccc(C)c4=O)cc3Cl)c(=O)n(CCOC)c2n1', 'Not satisfied'),
  ('CNc1ncc2cc(-c3ccc(-n4cccc(C)c4=O)cc3Cl)c(=O)n(CCOC3CN(C)C3)c2n1', 'Satisfied'),
  ('CNc1ncc2cc(-c3ccc(-n4cccc(C)c4=O)cc3Cl)c(=O)n(CCCN)c2n1', 'Satisfied'),
  ('CNc1ncc2cc(-c3ccc(-n4cccc(C)c4=O)cc3Cl)c(=O)n(CCO)c2n1', 'Satisfied'),
  ('CNc1ncc2cc(-c3ccc(-n4cccc(C)c4=O)cc3Cl)c(=O)n(CC(F)(F)CN)c2n1', 'Satisfied'),
  ('CCn1c(=O)c(-c2ccc(-n3cccc(C)c3=O)cc2Cl)cc2cnc(NC3COC3)nc21', 'Not satisfied'),
  ('COCCn1c(=O)c(-c2ccc(-n3cccc(C)c3=O)cc2Cl)cc2cnc(NC3COC3)nc21', 'Satisfied'),
  ('CNc1ncc2cc(-c3ccc(-n4cccc(C)c4=O)cc3Cl)c(=O)n(CC3CCNCC3(F)F)c2n1 (racemic)', 'Satisfied'),
  ('CNc1ncc2cc(-c3ccc(-n4cccc(C)c4=O)cc3Cl)c(=O)n(CCC3(F)CN(C)C3)c2n1', 'Satisfied');

====

This listing pairs compounds with measured log10(Ki).
target: Serine/threonine-protein kinase PAK 1 (Homo sapiens, UniProt Q13153); assay: Inhibition of human recombinant N-terminal 6-His-tagged PAK1 kinase domain (249 to 545 residues) expressed in Escherichia coli BL21(DE3) assessed as phosphorylation of coumarin labeled FRET peptide substrate at Ser/Thr19 preincubated for 10 mins followed by ATP addition measured after 60 mins by Z'-LYTE assay
Sequence (Q13153 whole entry, the tested form may be a part): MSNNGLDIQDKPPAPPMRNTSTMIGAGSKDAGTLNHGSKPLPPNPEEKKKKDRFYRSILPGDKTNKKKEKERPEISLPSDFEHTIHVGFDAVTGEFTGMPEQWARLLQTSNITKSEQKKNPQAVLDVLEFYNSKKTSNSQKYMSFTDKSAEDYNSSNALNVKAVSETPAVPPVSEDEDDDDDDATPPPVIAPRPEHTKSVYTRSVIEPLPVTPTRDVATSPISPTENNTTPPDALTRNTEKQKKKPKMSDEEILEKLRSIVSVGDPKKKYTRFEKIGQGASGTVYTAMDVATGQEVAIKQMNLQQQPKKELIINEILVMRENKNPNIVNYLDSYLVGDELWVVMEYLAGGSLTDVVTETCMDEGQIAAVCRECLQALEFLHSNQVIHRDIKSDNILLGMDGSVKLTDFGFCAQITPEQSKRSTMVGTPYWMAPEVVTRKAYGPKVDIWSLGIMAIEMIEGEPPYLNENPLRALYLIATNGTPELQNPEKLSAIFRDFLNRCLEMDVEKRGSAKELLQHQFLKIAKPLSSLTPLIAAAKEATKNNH
measure.name: log10(Ki) (log10 of the value in nM)

INSERT INTO measurements (compound, measure_name, result_number) VALUES
  ('CNc1ncc2cc(-c3ccc(-n4ccnc(C)c4=O)cc3Cl)c(=O)n(CCCN)c2n1', 'log10(Ki)', 0.66),
  ('COCCn1c(=O)c(-c2ccc(-n3cccc(C)c3=O)cc2Cl)cc2cnc(NC3COC3)nc21', 'log10(Ki)', 0.77),
  ('CCn1c(=O)c(-c2ccc(-n3cccc(C)c3=O)cc2Cl)cc2cnc(NC)nc21', 'log10(Ki)', 0.90),
  ('CCn1c(=O)c(-c2ccc(-n3cccc(C)c3=O)cc2Cl)cc2cnc(NC3COC3)nc21', 'log10(Ki)', 0.80),
  ('Cc1cncc(-c2ccc(-c3cc4cncnc4n(C[C@H]4CC[C@H](N)CC4)c3=O)c(Cl)c2)n1', 'log10(Ki)', 2.57),
  ('Cc1nccn(-c2ccc(-c3cc4cnc(NC5COC5)nc4n(CC4CCNCC4(F)F)c3=O)c(Cl)c2)c1=O (single isomer, unassigned; enantiomer 2)', 'log10(Ki)', 1.08),
  ('CNc1ncc2cc(-c3ccc(-n4cncc(C)c4=O)cc3Cl)c(=O)n(CCOC)c2n1', 'log10(Ki)', 1.34),
  ('CNc1ncc2cc(-c3ccc(-n4ccn(C)c4=O)cc3Cl)c(=O)n(CCCN)c2n1', 'log10(Ki)', 1.11),
  ('CNc1ncc2cc(-c3ccc(-n4cccc(C)c4=O)cc3Cl)c(=O)n(CCOC)c2n1', 'log10(Ki)', 1.11),
  ('CNc1ncc2cc(-c3ccc(-n4cccc(C)c4=O)cc3Cl)c(=O)n(CC3CCNCC3(F)F)c2n1 (racemic)', 'log10(Ki)', 0.43),
  ('CNc1ncc2cc(-c3ccc(N4CCCC4=O)cc3Cl)c(=O)n(CCCN)c2n1', 'log10(Ki)', 1.95);
